# Test system: primary rat mixed cortical cells
# experiment description: In vitro myelination assay (MBP positive myelin strands, fold myelin pixels above background)
# Assay type: cell-based
# applied conditions: Rattus norvegicus, 1.0 μM compound, relative to baseline of no added compound; read-out: Fold myelin pixels above background
Entries and their fold induction at 1 µM values follow.

molecule	fold induction at 1 µM
Cc1cc(Nc2ncn(-c3cc(F)cc(F)c3)n2)cc(N2CC3CC(C2)O3)c1 [Compound 527]	100 to 1000
FC(F)(F)c1cc(Nc2ncn(-c3cccnc3)n2)nc(N2CCN(C3COC3)CC2)c1 [Compound 684]	10 to 100
Cc1cc(Nc2ncn(-c3cc(F)cc(F)c3)n2)cc(OC2CCN(C3COC3)CC2)c1 [Compound 433]	100 to 1000
COCC1CCN(c2cc(C)cc(Nc3ncn(-c4ccncn4)n3)c2)CC1 [Compound 464]	10 to 100
Cc1cc(Nc2ncn(-c3cc(F)cc(F)c3)n2)c(F)c(N2CC3(COC3)C2)c1 [Compound 743]	1 to 10
CC(F)(F)c1cc(Nc2ncn(-c3ccc(F)c(F)c3)n2)nc(N2CCN(C3COC3)CC2)c1 [Compound 579]	1 to 10
Fc1cc(F)cc(-n2cnc(Nc3cc(N4CCN(C5COC5)CC4)cc(N4CC(N5CCOCC5)C4)c3)n2)c1 [Compound 701]	10 to 100
Fc1cc(F)cc(-n2cnc(Nc3cc(N4CC(N5CCOCC5)C4)cc(F)n3)n2)c1 [Compound 612]	≤ 1
Cc1cc(Nc2ncn(-c3cc(F)cc(F)c3)n2)cc(C2(C)CN(C)C(=O)O2)c1 (stereo not shown) [Compound 613]	10 to 100
Fc1cc(F)cc(-n2cnc(Nc3cc(N4CCOCC4)cc(C(F)(F)F)c3)n2)c1 [Compound 475]	100 to 1000
Fc1ccc(-n2cnc(Nc3cc(C(F)F)cc(N4CCN(C5COC5)CC4)n3)n2)cc1F [Compound 524]	100 to 1000
Fc1cc(F)cc(-n2cnc(Nc3cc(C(F)(F)F)cc(N4CCN([C@@H]5CCOC5)CC4)n3)n2)c1 (single isomer, unassigned) [Compound 672]	1 to 10
Cc1cc(Nc2ncn(-c3cc(F)cc(F)c3)n2)cc([C@@]2(C)CNC(=O)O2)c1 (stereo in doubt) [Compound 658]	10 to 100
Cc1cc(CN2CCN(C3COC3)CC2)cc(Nc2ncn(-c3cnccn3)n2)c1 [Compound 583]	10 to 100
Cc1cc(Nc2ncn(-c3ccccc3)n2)cc(O[C@@H]2CCN(C3COC3)C2)c1 [Compound 391]	1000 to 10000
Cc1cc(Nc2ncn(-c3ccc(F)cc3)n2)cc(N2CCN(C3COC3)CC2)c1 [Compound 622]	1 to 10

###

# Tested on: primary rat mixed cortical cells
# experiment description: In vitro myelination assay (MBP positive myelin strands, fold myelin pixels above background)
# Assay type: cell-based
# applied conditions: Rattus norvegicus, 10.0 μM compound, relative to baseline of no added compound; read-out: Fold myelin pixels above background, 10.0 μM

molecule	fold induction at 10 µM
Fc1cc(Nc2ncn(-c3ccccc3)n2)cc(N2CCOCC2)c1	1000 to 10000
Cc1cc(Nc2ncn(-c3cccnc3)n2)cc(N2CCN(C3COC3)CC2)c1	100 to 1000
c1ccc(-n2cnc(Nc3cc(C4CCOCC4)cc(N4CCOCC4)c3)n2)cc1	1 to 10
Cc1cc(Nc2ncn(-c3ccccc3)n2)cc(C2CCN(C3(CS(=O)(=O)c4ccccc4)COC3)CC2)c1	100 to 1000
Cc1cc(Nc2ncn(-c3ccccc3)n2)cc(C2CCN(C3COC3)CC2)c1	≤ 1
CCc1cc(Nc2ncn(-c3ncncc3F)n2)cc(N2CCN(C3COC3)CC2)c1	1000 to 10000
Cc1cc(F)cc(-n2cnc(Nc3cc(C4CC4)cc(N4CCN(C5COC5)CC4)c3)n2)c1	≤ 1
Cc1cc(Nc2ncn(-c3cc(F)cc(F)c3)n2)cc(N2CCN(CC(=O)O)CC2)c1	1 to 10
CC(=O)N1CCCC(Nc2cc(C)cc(Nc3ncn(-c4ccccc4)n3)c2)C1 (stereo not drawn)	100 to 1000
c1ccc(-n2cnc(Nc3cc(N4CCOCC4)nc(N4CCOCC4)c3)n2)cc1	≤ 1
Fc1cncc(-n2cnc(Nc3cc(C4CC4)cc(N4CCN(C5COC5)CC4)c3)n2)c1	10 to 100
Cc1cc(N2CCOCC2)cc(Nc2ncn(-c3ccccn3)n2)c1F	10 to 100
CC(=O)N1CCCC(c2cc(C)cc(Nc3ncn(-c4cc(F)cc(F)c4)n3)c2)C1 (stereo not drawn)	100 to 1000
Cc1cc(Nc2ncn(-c3cc(C)ncn3)n2)cc(N2CCN(C3COC3)CC2)c1	100 to 1000
Cc1cc(Nc2ncn(-c3ccccc3)n2)cc(N2CCN(C3CCOC3C)CC2)c1 (stereo not drawn)	1 to 10
Cc1cc(Nc2ncn(-c3ccccc3)n2)cc(C2CCN(C3(C)COC3)CC2)c1	1000 to 10000
Cc1cc(-n2cnc(Nc3cc(C4CC4)cc(N4CCN(C5COC5)CC4)c3)n2)ncn1	1000 to 10000
Fc1cc(Nc2ncn(-c3ccc(F)cc3F)n2)cc(N2CCCOCC2)c1	100 to 1000
Fc1cc(-n2cnc(Nc3cc(C(F)F)cc(N4CCOCC4)c3)n2)ccn1	100 to 1000
FC(F)c1cc(Nc2ncn(-c3cccnc3)n2)cc(N2CCN(C3COC3)CC2)c1	100 to 1000
Fc1cc(Nc2ncn(-c3cccc(F)c3)n2)cc(NC2CNC2)c1	≤ 1
Cc1cc(Nc2ncn(-c3cc(F)cc(F)c3)n2)cc([C@@H]2CCN(C3COC3)C2)c1 (single isomer, unassigned)	100 to 1000
Cc1cc(Nc2ncn(-c3cccc(Cl)c3)n2)cc(N2CCN(C)CC2)c1	≤ 1
Fc1ccc(-n2cnc(Nc3cc(C4CCOCC4)nc(C4CC4)c3)n2)cc1F	≤ 1
Cc1cc(Nc2ncn(-c3cc(F)cc(F)c3)n2)cc(C2=CCN(C3COC3)CC2)c1	≤ 1
Cc1cc(Nc2ncn(-c3ccccc3)n2)cc(N2CCN(C(C)C)CC2)c1	≤ 1
Cc1cc(Nc2ncn(-c3ccc(F)c(F)c3)n2)cc(N2CCN(CC(F)(F)F)CC2)c1	100 to 1000
COCC1CCN(c2cc(C)cc(Nc3ncn(-c4ccncc4)n3)c2)CC1	100 to 1000
Cc1cc(Nc2ncn(-c3cc(F)cc(F)c3)n2)cc(N2CCN(C3COC3)CC2)c1	≤ 1
Cc1cc(Nc2ncn(-c3ccc(C#N)cc3)n2)cc(N2CCN(C)CC2)c1	≤ 1
COc1cccc(-n2cnc(Nc3cc(Cl)nc(N4CCCCC4)c3)n2)c1	1 to 10
Cc1cc(Nc2ncn(-c3cc(F)cc(F)c3)n2)cc(N2CCN(C(C)(CO)CO)CC2)c1	≤ 1
Cc1cc(Nc2ncn(-c3cc(F)cc(Cl)c3)n2)cc(N2CCN(C3COC3)CC2)c1	100 to 1000
